System: Endogenous Huntingtin Protein
Assay: Endogenous Huntingtin Protein Assay (ELISA-based MSD electrochemiluminescence)
Format: cell-based
Details: Table 2; MSD plates coated with MW1 (expanded polyglutamine) or MAB2166 capture antibody; "inactive" = result above the detection limit of the assay
METRIC: IC50 (nM)

| MOLECULE | TESTED_TARGET | METRIC | UNIT_ABBREV | QUANTITATIVE_READOUT |
| --- | --- | --- | --- | --- |
| CC(C)[C@H]1CN(c2ncc(-c3ccc(-c4cn(C)nn4)cc3O)nn2)CCN1 | Endogenous Huntingtin Protein | IC50 | nM | 417 |
| Oc1cc(-c2cn[nH]c2)ccc1-c1cnc(N2CCN[C@H](C3CC3)C2)nn1 | Endogenous Huntingtin Protein | IC50 | nM | 50.5 |
| Oc1cc(-c2c[nH]nc2F)ccc1-c1cnc(N2CCN[C@@H](C3CC3)C2)nn1 | Endogenous Huntingtin Protein | IC50 | nM | 2.1 |
| CCN1CCN(c2ncc(-c3ccc(-c4cc(F)c5nc(C)cn5c4)cc3O)nn2)C[C@H]1C | Endogenous Huntingtin Protein | IC50 | nM | 6.7 |

[P] Cc1nc2c(C3CC3)nc(-c3ccc(-c4cnc(N5C[C@@H](C)N[C@@H](C)C5)nn4)c(O)c3)cn2n1
[Q] CC1([C@@H]2CN(c3ncc(-c4ccc(-c5cnn6c5CCC6)cc4O)nn3)CCN2)CC1
[R] C=C[C@H]1CN(c2ncc(-c3ccc(-c4cn[nH]c4)cc3O)nn2)C[C@@H](C)N1
[S] Cn1cc2cc(-c3ccc(-c4cnc(N5CCN6CCCC6C5)nn4)c(O)c3)cc(F)c2n1 (centres unmarked)
[T] Cc1ccc2c(ccn2-c2ccc(-c3cnc(N4CCN[C@@H](C(C)C)C4)nn3)c(O)c2)n1
Reorder: IC50, max to min. Return the labels ranked in the requested order, please.
R, Q, T, P, S
(R: 319 nM, Q: 198 nM, T: 62.2 nM, P: 22.1 nM, S: 8.3 nM)

[I] Cc1nc2cnc(-c3ccc(-c4cnc(N5CCN[C@@H](C(C)C)C5)nn4)c(O)c3)cn2n1
[II] Cn1cc2cc(-c3ccc(-c4cnc(N5CCN6CCC[C@H]6C5)nn4)c(O)c3)cc(F)c2n1
Of I and II , whose reported IC50 is the larger number? Your answer should be the label of the entry you select.
II

[P] Cc1nc(-c2ccc(-c3cnc(N4CCN[C@@H](C5CC5)C4)nn3)c(O)c2)cs1
[Q] COC[C@H]1CN(c2ncc(-c3ccc(-c4cn[nH]c4)cc3O)nn2)CCN1
[R] CC1(C)CN(c2ncc(-c3ccc(-c4cn[nH]c4)cc3O)nn2)CCN1
Which order do these items take when sorted by rising IC50? List them. Return the labels ranked in the requested order, please.
P, Q, R

----------
Test system: Endogenous Huntingtin Protein
Assay: Endogenous Huntingtin Protein Assay (ELISA-based MSD electrochemiluminescence)
Format: cell-based
Settings: Table 2; MSD plates coated with MW1 (expanded polyglutamine) or MAB2166 capture antibody; "inactive" = result above the detection limit of the assay
METRIC: IC50 (nM)

[I] Oc1cc(-c2ccncn2)ccc1-c1cnc(N2CCN[C@@H](C3CC3)C2)nn1
[II] Cc1cnn(-c2ccc(-c3cnc(N4CCN[C@H](C5CC5)C4)nn3)c(O)c2)n1
[III] COc1cc(-c2ccc(-c3cnc(N4C[C@@H](C5CC5)N[C@@H](C)C4)nn3)c(O)c2)nc(OC)n1
[IV] CC(C)(O)C1CN(c2ncc(-c3ccc(-c4cn[nH]c4)cc3O)nn2)CCN1 (stereo not shown)
Re-order the entries listed above so their IC50 values fall from first to last. Return the labels ranked in the requested order, please.
III, I, II, IV

----------
Test system: Endogenous Huntingtin Protein
Test: Endogenous Huntingtin Protein Assay (ELISA-based MSD electrochemiluminescence)
Assay type: cell-based
Details: Table 2; MSD plates coated with MW1 (expanded polyglutamine) or MAB2166 capture antibody; "inactive" = result above the detection limit of the assay
METRIC: IC50 (nM)

Example entries and their recorded answers appear below.
| COMPOUND | TESTED_TARGET | UNIT_ABBREV | QUANTITATIVE_READOUT |
| --- | --- | --- | --- |
| Cc1nc2c(C)cc(-c3ccc(-c4cnc(N5CCN[C@@H](C(C)C)C5)nn4)c(O)c3)nn2n1 | Endogenous Huntingtin Protein | nM | 7.9 |
| C[C@@H]1CN(c2ncc(-c3ccc(-c4ncns4)cc3O)nn2)C[C@H](C2CC2)N1 (single isomer, unassigned) | Endogenous Huntingtin Protein | nM | 53.9 |
| CC(C)[C@H]1CN(c2ncc(-c3ccc(-c4ccncc4)cc3O)nn2)CCN1 | Endogenous Huntingtin Protein | nM | 60.5 |
| Cc1cnn(-c2ccc(-c3cnc(N4CCN[C@@H](C(C)C)C4)nn3)c(O)c2)n1 | Endogenous Huntingtin Protein | nM | 49 |
| CCc1cc(-c2ccc(-c3cnc(N4CCN[C@@H](C(C)C)C4)nn3)c(O)c2)cn2cc(C)nc12 | Endogenous Huntingtin Protein | nM | 19.9 |

[A] C[C@@H]1CN(c2ncc(-c3ccc(-c4cn[nH]c4)cc3O)nn2)C[C@H](C2CC2)N1
[B] CC(C)[C@H]1CN(c2ncc(-c3ccc(-c4cn5ccnc5cn4)cc3O)nn2)CCN1
[C] Cc1nnn2cc(-c3ccc(-c4cnc(N5CCN[C@@H](C6CC6)C5)nn4)c(O)c3)ccc12
[D] Cc1cc(-c2ccc(-c3cnc(N4CCNC(C(C)C)C4)nn3)c(O)c2)ccn1 (centres unmarked)
Reorder: IC50, max to min. Return the labels ranked in the requested order, please.
D, B, A, C
(D: 138 nM, B: 36 nM, A: 13.4 nM, C: 4.8 nM)

[1] Cc1cnsc1-c1ccc(-c2cnc(N3CCN[C@@H](C(C)C)C3)nn2)c(O)c1
[2] CC(C)N1CCN(c2ncc(-c3ccc(-c4cn[nH]c4)cc3O)nn2)CC1
[3] Cc1cn2cc(-c3cnc(-c4cnc(N5CCN(C)CC5)nn4)c(O)c3)cc(F)c2n1
[4] C[C@@H]1CN(c2ncc(-c3ccc(-c4cnc5nn(C)nc5c4)cc3O)nn2)C[C@H](C)N1
Which order do these items take when sorted by rising IC50? List them. Return the labels ranked in the requested order, please.
4, 3, 1, 2
(4: 11.6 nM, 3: 41.2 nM, 1: 376 nM, 2: 1010 nM)

[1] CC[C@H]1CN(c2ncc(-c3ccc(-c4cc(OC)ncn4)cc3O)nn2)C[C@@H](C)N1
[2] CNc1ccc(-c2ccc(-c3cnc(N4CCN[C@@H](C5CC5)C4)nn3)c(O)c2)cc1
Of 1 and 2 , whose reported IC50 is the larger number? Your answer should be the label of the entry you select.
2
(2: 113 nM, 1: 8.7 nM)

[1] CC(C)[C@H]1CN(c2ncc(-c3ccc(-c4cnn5c4CCC5)cc3O)nn2)CCN1
[2] Oc1cc(-c2cn[nH]c2)ccc1-c1cnc(N2CCNC3(CCC3)C2)nn1
Of 1 and 2 , whose reported IC50 is the larger number? Your answer should be the label of the entry you select.
2

----------
System: Endogenous Huntingtin Protein
Test: Endogenous Huntingtin Protein Assay (ELISA-based MSD electrochemiluminescence)
Type: cell-based
Details: Table 2; MSD plates coated with MW1 (expanded polyglutamine) or MAB2166 capture antibody; "inactive" = result above the detection limit of the assay
METRIC: IC50 (nM)

Example entries and their recorded answers appear below.
| MOLECULE | IC50 / nM |
| --- | --- |
| [2H]C([2H])([2H])n1cc(-c2ccc(-c3cnc(N4CCNC(C(C)C)C4)nn3)c(O)c2)cn1 (stereo not shown) | 110 |
| [2H]C([2H])([2H])Oc1cc(-c2ccc(-c3cnc(N4CCN(C)C(C(C)(C)O)C4)nn3)c(O)c2)ncn1 (stereo not shown) | 24.9 |
| CC[C@H]1CN(c2ncc(-c3ccc(-c4ccnc(OC)c4)cc3O)nn2)C[C@@H](C)N1 (single isomer, unassigned) | 19.4 |
| Cn1nc2cc(-c3ccc(-c4cnc(N5CCN[C@H](C6(C)CC6)C5)nn4)c(O)c3)cnc2n1 | 106 |
| CC(C)C1CN(c2ncc(-c3ccc(-c4cn[nH]c4)cc3O)nn2)CCN1C (stereo not shown) | 42 |
| CC(C)[C@H]1CN(c2ncc(-c3ccc(-c4cnccn4)cc3O)nn2)CCN1 | 466 |
| Oc1cc(-c2cnn3c2CCC3)ccc1-c1cnc(N2CCN[C@@H](C3CC3)C2)nn1 | 3.7 |
| CC(C)(C)[C@H]1CN(c2ncc(-c3ccc(-c4cn5ncnc5cn4)cc3O)nn2)CCN1 | 18.6 |
| C[C@@H]1CN(c2ncc(-c3ccc(-c4cn[nH]c4)cc3O)nn2)C[C@H](C2CCC2)N1 | 21.9 |
| C[C@@H]1CN(c2ncc(-c3ccc(-c4c[nH]nc4F)cc3O)nn2)C[C@H](C(C)(C)C)N1 | 74.9 |

[1] CCC1CN(c2ncc(-c3ccc(-c4cc(F)c5nn(C)cc5c4)cc3O)nn2)CCN1 (stereo not shown)
[2] CC(C)(C)[C@H]1CN(c2ncc(-c3ccc(-c4cn[nH]c4)cc3O)nn2)CCN1
Of 1 and 2 , whose reported IC50 is the larger number? Your answer should be the label of the entry you select.
2
